- Tested on: HeLa cells
- test_method_notes: XTT cell viability assay, HeLa
- Assay type: cell-based, human
- condition_details: drug concentration, 24 h exposure, washed, further 24 h
property: IC50

Item N.N.[Cl][Pt][Cl] [CDDP, cis-dichlorodiammine platinum(II)] has what recorded IC50?
12 to 21 µM

* * *

- Test system: HeLa cells
- test_method_notes: XTT cell viability assay, HeLa
- Assay type: cell-based, human
- condition_details: Homo sapiens, drug concentration, 24 h exposure, washed, further 24 h
Structures can show the parent of a compound that is named as a salt.
property: IC50

Fill in: IC50 of Nc1ccc2cc3ccc(N)cc3nc2c1 [proflavine, 3,6-diaminoacridine hydrochloride] is ___
1800 to 2900 nM
